Test system: Mycoplasma pneumoniae strain M129 (ATCC 29342)
Test: Time-kill curves
Assay type: cell-based
Parameters: unit not given here
Conditions: 16×MIC; time 48

molecule	M. pneumoniae count in time-kill curve
O=C(O)c1cn(C2CC2)c2cc(N3CCNCC3)c(F)cc2c1=O	3.861
C=CC1(C)CC(OC(=O)CSc2ccc(NC(=O)Cc3ccc([N+](=O)[O-])cc3)cc2)C2(C)C(C)CCC3(CCC(=O)C32)C(C)C1O (centres unmarked) [compound 16C]	3.36
CC[C@H]1OC(=O)[C@H](C)[C@@H](O[C@H]2C[C@@](C)(OC)[C@@H](O)[C@H](C)O2)[C@H](C)[C@@H](O[C@@H]2O[C@H](C)C[C@H](N(C)C)[C@H]2O)[C@](C)(O)C[C@@H](C)C(=O)[C@H](C)[C@@H](O)[C@]1(C)O	3.332
C=C[C@]1(C)C[C@@H](OC(=O)CSCCN(CC)CC)[C@]2(C)[C@H](C)CC[C@]3(CCC(=O)[C@H]32)[C@@H](C)[C@@H]1O [tiamulin, Tiamulin, reference compound]	3.739
CN(C)[C@@H]1C(O)=C(C(N)=O)C(=O)[C@@]2(O)C(O)=C3C(=O)c4c(O)cccc4[C@@](C)(O)[C@H]3C[C@@H]12	3.742
